Source of measurements: patent US10941152B2

- EXPERIMENTAL_TARGET: follicle-stimulating hormone (FSH) receptor (Rattus norvegicus, UniProt P20395)
- Construct: endogenous in cells; host or cells: rat granulosa cells
- Sequence (P20395 18-692): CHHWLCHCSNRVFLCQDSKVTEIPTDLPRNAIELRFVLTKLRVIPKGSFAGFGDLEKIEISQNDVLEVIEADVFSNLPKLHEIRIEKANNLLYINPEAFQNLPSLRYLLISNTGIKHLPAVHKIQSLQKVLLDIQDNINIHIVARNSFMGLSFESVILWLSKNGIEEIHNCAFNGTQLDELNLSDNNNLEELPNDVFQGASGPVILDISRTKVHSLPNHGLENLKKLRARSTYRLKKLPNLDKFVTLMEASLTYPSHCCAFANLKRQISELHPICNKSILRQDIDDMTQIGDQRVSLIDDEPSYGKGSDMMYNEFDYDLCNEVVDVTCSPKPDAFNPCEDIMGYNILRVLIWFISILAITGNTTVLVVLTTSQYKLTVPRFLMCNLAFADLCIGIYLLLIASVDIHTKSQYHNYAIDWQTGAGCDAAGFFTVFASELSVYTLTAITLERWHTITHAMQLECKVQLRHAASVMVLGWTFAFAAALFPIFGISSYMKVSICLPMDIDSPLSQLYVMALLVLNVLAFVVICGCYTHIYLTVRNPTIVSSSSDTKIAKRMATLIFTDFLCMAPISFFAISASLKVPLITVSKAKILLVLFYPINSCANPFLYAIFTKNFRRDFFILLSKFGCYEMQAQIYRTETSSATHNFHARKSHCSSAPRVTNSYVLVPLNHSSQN
- TEST_PROTOCOL: Rat granulosa EC50 FSH (Assay B)
- Type: cell-based
Form field: EC50 (one value per entry).

A selection of reference data follows.
[[record]]
molecule = "COc1cc2c(cc1-c1ccn(C)n1)-c1c(c(C(=O)N3CCC(O)CC3(C)C)nn1-c1cc(Cl)cc(Cl)c1)CO2 (stereo not drawn) [Compound 7]"
experimental_target = "follicle-stimulating hormone (FSH) receptor (Rattus norvegicus, UniProt P20395)"
reported_measurement = "101 to 500 nM"

[[record]]
molecule = "[2H]C([2H])([2H])Oc1cc(Cl)cc(-n2nc(C(=O)N(C)C(C)(C)C)c3c2-c2cc(-c4cncc(C#N)c4)c(OC([2H])([2H])[2H])cc2OC3)c1 [Compound 36]"
experimental_target = "follicle-stimulating hormone (FSH) receptor (Rattus norvegicus, UniProt P20395)"
reported_measurement = "10 to 100 nM"


Query (molecule): COc1cc2c(cc1-c1cnn(CC(N)=O)c1)-c1c(c(C(=O)N(C)C(C)(C)C)nn1-c1cc(Cl)cc(Cl)c1)CO2 [Compound 2] ; field requested: EC50
10 to 100 nM

----------
- EXPERIMENTAL_TARGET: FSHR (Homo sapiens)
- TEST_PROTOCOL: EC50 of cyclic AMP production in CHO FSHR cells + EC20 FSH (Assay A)
- EXPERIMENTAL_CONDITIONS: cyclic AMP production in CHO FSHR cells + EC20 FSH (0.265 pM), HTRF
QUANTITY_KIND: EC50

Solved cases (2 shown):
[[record]]
compound = "COc1cc2c(cc1-c1cnn(CC(N)=O)c1)-c1c(c(C(=O)N3CCOCC3(C)C)nn1-c1cc(F)cc(Cl)c1)CO2"
reported_measurement = "< 10 nM"

[[record]]
compound = "COc1cc2c(cc1-c1cc(=O)[nH][nH]1)-c1c(c(C(=O)N(C)C(C)(C)C)nn1-c1ccsc1)CO2"
reported_measurement = "10 to 100 nM"


Any idea what EC50 was measured for COc1cc(Cl)cc(-n2nc(C(=O)N(C)C(C)(C)C)c3c2-c2cc(-c4cnn(CCO)c4)c(OC)cc2OC3)c1 ?
10 to 100 nM

Fill blank: measured EC50 of the compound CCOC(=O)[C@@H]1C[C@@H]1c1cc2c(cc1OC)OCc1c(C(=O)N(C)C(C)(C)C)nn(-c3cc(Cl)cc(Cl)c3)c1-2 (racemic) is ____.
10 to 100 nM

So what does the record say about EC50 for COc1cc2c(cc1-c1nn(C)cc1Br)-c1c(c(C(=O)N(C)C(C)(C)C)nn1-c1cc(Cl)cc(Cl)c1)CO2 ?
< 10 nM

----------
- EXPERIMENTAL_TARGET: UniProt P23945
- TEST_PROTOCOL: EC50 of cyclic AMP production in CHO FSHR cells + EC20 FSH (Assay A)
- EXPERIMENTAL_CONDITIONS: cyclic AMP production in CHO FSHR cells + EC20 FSH (0.265 pM), HTRF
pEC50: −log10 of the molar value.
Reported values of pEC50 for individual entries

[[record]]
compound_structure_string = "COc1cc2c(cc1-c1ccn(C)n1)-c1c(c(C(=O)N3CCOCC3(C)C)nn1-c1cc(C)cc(Cl)c1)CO2"
experimental_target = "UniProt P23945"
quantity_kind = "pEC50"
reported_measurement = "7.00 to 8.00"

[[record]]
compound_structure_string = "COc1cc2c(cc1-c1ccc(N)nc1)-c1c(c(C(=O)N(C)C(C)(C)C)nn1-c1cc(Cl)cc(Cl)c1)CO2"
experimental_target = "UniProt P23945"
quantity_kind = "pEC50"
reported_measurement = "> 8.00"

[[record]]
compound_structure_string = "COc1cc(-c2cc3c(cc2OC)OCc2c(C(=O)N(C)C(C)(C)C)nn(-c4cc(Cl)cc(Cl)c4)c2-3)cc(C(N)=O)n1"
experimental_target = "UniProt P23945"
quantity_kind = "pEC50"
reported_measurement = "> 8.00"


Please give the measured pEC50 for this compound: COc1cc(OC)cc(-n2nc(C(=O)N3CCOCC3(C)C)c3c2-c2cc(-c4cncc(C(N)=O)c4)c(OC)cc2OC3)c1
> 8.00

So what's the measured pEC50 for this one? COc1cc2c(cc1-c1cccnc1F)-c1c(c(C(=O)N(CCO)C(C)(C)C)nn1-c1cc(Cl)cc(Cl)c1)CO2
> 8.00

----------
- EXPERIMENTAL_TARGET: FSHR (Homo sapiens, UniProt P23945)
- Sequence (P23945 18-695): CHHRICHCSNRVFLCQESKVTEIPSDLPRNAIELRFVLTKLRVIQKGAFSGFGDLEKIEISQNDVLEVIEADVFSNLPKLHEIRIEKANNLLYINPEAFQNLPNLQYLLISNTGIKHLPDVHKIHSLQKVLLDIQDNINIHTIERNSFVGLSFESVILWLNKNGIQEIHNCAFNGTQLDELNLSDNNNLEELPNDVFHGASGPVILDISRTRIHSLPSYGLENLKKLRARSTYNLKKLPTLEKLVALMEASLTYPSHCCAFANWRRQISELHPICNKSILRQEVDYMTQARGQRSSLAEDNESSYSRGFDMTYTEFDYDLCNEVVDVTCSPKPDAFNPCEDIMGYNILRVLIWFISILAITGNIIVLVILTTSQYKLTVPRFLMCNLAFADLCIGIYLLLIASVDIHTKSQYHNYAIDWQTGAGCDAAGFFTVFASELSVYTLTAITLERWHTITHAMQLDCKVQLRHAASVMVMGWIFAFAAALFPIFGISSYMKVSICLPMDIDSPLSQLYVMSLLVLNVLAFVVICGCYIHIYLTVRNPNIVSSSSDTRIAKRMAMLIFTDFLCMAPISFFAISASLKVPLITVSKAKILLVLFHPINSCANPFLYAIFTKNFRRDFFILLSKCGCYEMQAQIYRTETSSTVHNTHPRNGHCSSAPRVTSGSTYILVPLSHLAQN
- TEST_PROTOCOL: EC50 of cyclic AMP production in CHO FSHR cells + EC20 FSH (Assay A)
- EXPERIMENTAL_CONDITIONS: cyclic AMP production in CHO FSHR cells + EC20 FSH (0.265 pM), HTRF
QUANTITY_KIND: EC50

Past entries and their recorded results:
[[record]]
compound_structure_string = "COc1cc2c(cc1-c1cc(C(N)=O)c[n+]([O-])c1)-c1c(c(C(=O)N3CCOCC3(C)C)nn1-c1cc(F)cc(F)c1)CO2"
quantity_kind = "EC50"
reported_measurement = "< 0.01 µM"

[[record]]
compound_structure_string = "COc1cc(OC)cc(-n2nc(C(=O)N(CCO)C(C)(C)C)c3c2-c2cc(-c4ccn(C)n4)c(OC)cc2OC3)c1"
quantity_kind = "EC50"
reported_measurement = "0.01 to 0.1 µM"


I'm curious: which EC50 was measured for COc1cc2c(cc1-c1cncc(C(N)=O)c1)-c1c(c(C(=O)N(C)C(C)(C)C#N)nn1-c1cc(F)cc(Cl)c1)CO2 tested on FSHR (Homo sapiens, UniProt P23945)?
< 0.01 µM

----------
- EXPERIMENTAL_TARGET: follicle-stimulating hormone (FSH) receptor (Rattus norvegicus, UniProt P20395)
- Construct: endogenous in cells
- Sequence (P20395 18-692): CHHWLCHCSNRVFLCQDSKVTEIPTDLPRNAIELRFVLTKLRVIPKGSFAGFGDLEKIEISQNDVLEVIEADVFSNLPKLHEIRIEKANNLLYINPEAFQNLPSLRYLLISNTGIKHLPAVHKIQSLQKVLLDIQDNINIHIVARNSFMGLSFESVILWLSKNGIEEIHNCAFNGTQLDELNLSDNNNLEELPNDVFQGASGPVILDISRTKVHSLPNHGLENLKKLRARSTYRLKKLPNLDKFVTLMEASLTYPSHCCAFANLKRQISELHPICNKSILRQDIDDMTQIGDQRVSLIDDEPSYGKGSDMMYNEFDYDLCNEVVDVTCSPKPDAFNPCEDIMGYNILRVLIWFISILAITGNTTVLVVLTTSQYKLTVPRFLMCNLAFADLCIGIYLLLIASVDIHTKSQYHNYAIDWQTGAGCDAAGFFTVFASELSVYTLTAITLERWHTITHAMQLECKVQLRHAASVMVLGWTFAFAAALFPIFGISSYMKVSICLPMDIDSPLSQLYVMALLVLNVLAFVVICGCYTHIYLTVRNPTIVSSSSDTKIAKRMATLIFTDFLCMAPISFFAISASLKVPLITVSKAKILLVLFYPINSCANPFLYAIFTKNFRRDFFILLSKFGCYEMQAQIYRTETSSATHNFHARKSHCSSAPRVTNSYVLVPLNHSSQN
- TEST_PROTOCOL: Rat granulosa EC50 FSH (Assay B)
Reported values of EC50 for individual entries

Worked set:
[[record]]
compound = "COc1cc2c(cc1-c1ccn(C)n1)-c1c(c(C(=O)N3CC[S+]([O-])CC3(C)C)nn1-c1ccsc1)CO2 (centres unmarked) [Compound 56]"
reported_measurement = "101 to 500 nM"

[[record]]
compound = "COc1cc2c(cc1-c1cnn(CC(=O)N(C)C)c1)-c1c(c(C(=O)N3CCOCC3(C)C)nn1-c1cc(Cl)cc(Cl)c1)CO2 [Compound 92]"
reported_measurement = "10 to 100 nM"

[[record]]
compound = "COc1cc2c(cc1-c1cc(C(N)=O)ncc1F)-c1c(c(C(=O)N(C)C(C)(C)C#N)nn1-c1cc(F)cc(F)c1)CO2 [Compound 109]"
reported_measurement = "10 to 100 nM"

[[record]]
compound = "COc1cc2c(cc1-c1ccn(C)n1)-c1c(c(C(=O)N3CCOCC3(C)C)nn1-c1cc(Cl)cc(Cl)c1)CO2 [Compound 9]"
reported_measurement = "101 to 500 nM"


Give its EC50 value. Item: COc1cc2c(cc1-c1cccnc1F)-c1c(c(C(=O)N(C)C(C)(C)C)nn1-c1ccsc1)CO2 [Compound 55]
10 to 100 nM

Fill in: EC50 of COc1cc2c(cc1-c1cnn(CC(N)=O)c1)-c1c(c(C(=O)N3CCOCC3(C)C)nn1-c1cc(F)cc(Cl)c1)CO2 [Compound 69] is ___
10 to 100 nM

Given the entry COc1cc2c(cc1-c1cncc(C(N)=O)c1)-c1c(c(C(=O)N(C)C(C)(C)C)nn1-c1ccccn1)CO2 [Compound 168] , report its measured EC50.
101 to 500 nM

I am curious: what EC50 value has been reported for COc1cc2c(cc1-c1cncc(C(=O)O)c1)-c1c(c(C(=O)N3CCOCC3(C)C)nn1-c1cc(Cl)cc(Cl)c1)CO2 [Compound 178] ?
< 10 nM

// lookup EC50 for COCC1(CC(C)C)CCCN1C(=O)c1nn(-c2ccsc2)c2c1COc1cc(OC)c(-c3ccn(C)n3)cc1-2 (centres unmarked) [Compound 127]
101 to 500 nM

# lookup: EC50 of COc1cc2c(cc1-c1ccn(C)n1)-c1c(c(C(=O)N3CCN(C#N)CC3(C)C)nn1-c1ccsc1)CO2 [Compound 184]
10 to 100 nM

// lookup EC50 for COc1cc2c(cc1-c1cc(C(N)=O)c[n+]([O-])c1)-c1c(c(C(=O)N3CCOCC3(C)C)nn1-c1cc(F)cc(F)c1)CO2 [Compound 176]
10 to 100 nM

Reported EC50 for COc1cc(F)cc(-n2nc(C(=O)N(C)C(C)(C)C)c3c2-c2cc(-c4cncc(C#N)c4)c(OC)cc2OC3)c1 [Compound 54] : what is it?
10 to 100 nM

Returns the measured EC50 for the input compound. Input: COc1cc(Cl)cc(-n2nc(C(=O)N(C)C(C)(C)C)c3c2-c2cc(-c4ccn(C)n4)c(OC)cc2OC3)c1 [Compound 32]
101 to 500 nM

# query: EC50 of entry COc1cc2c(cc1-c1cccnc1F)-c1c(c(C(=O)N(CCO)C(C)(C)C)nn1-c1cc(Cl)cc(Cl)c1)CO2 [Compound 123]
10 to 100 nM
